Assay: passive permeability, PAMPA, ADME assay (AID 1508612)
Details: pH 7.4, 30.0 min, 50.0 µM
observable: Papp

compound | result
O=C1CCCC2=C1C(c1ccncc1Br)N=C(Nc1nc3ccccc3o1)N2 (stereo not drawn) | > 1000 ×10⁻⁶ cm/s
Cc1cccc2nc(-c3cccnc3)c(Nc3ccc(C(C)C)cc3)n12 | > 1000 ×10⁻⁶ cm/s
COC(=O)c1ccccc1NC(=O)c1ccccc1OC(F)F | > 1000 ×10⁻⁶ cm/s
Fc1ccc(CN2CCOC[C@H]2c2ncc(-c3ccc(Cl)s3)[nH]2)cc1 | > 1000 ×10⁻⁶ cm/s
Cc1sc2c(c1C)C(c1ccc(Cl)cc1)=N[C@@H](CC(=O)OC(C)(C)C)c1nnc(C)n1-2 | > 1000 ×10⁻⁶ cm/s
COc1ccc(S(=O)(=O)N2CCCCCC2)cc1NC(=O)Cc1n[nH]c(=O)c2ccccc12 | < 1 ×10⁻⁶ cm/s
Cc1ccc(NC2=C(c3ccc(C(F)(F)F)cc3)C(=O)c3ccccc32)cc1F | < 1 ×10⁻⁶ cm/s
O=C(NCCc1cnc[nH]1)c1ccc(-c2ncc3cnc(-c4cccc(F)c4)cn23)cc1 | < 1 ×10⁻⁶ cm/s

---

Overview of reported Papp across a group of compounds:
Assay: passive permeability, PAMPA, ADME assay (AID 1508612)
Conditions: pH 7.4, 30.0 min, 50.0 µM

compound | Papp
Cc1cnc(CNc2nc(-c3cccc(NS(C)(=O)=O)c3)nc3ccccc23)cn1 | > 1000 ×10⁻⁶ cm/s
CCOC(=O)C1=C(CN(CC)Cc2ccccc2)NC(=O)NC1c1ccc(OC(C)C)cc1 (stereo not drawn) | > 1000 ×10⁻⁶ cm/s
O=c1[nH]c(C2CCN(CC3CCCCC3)CC2)nn1Cc1ccccc1 | < 1 ×10⁻⁶ cm/s

---

Experiment: passive permeability, PAMPA, ADME assay (AID 1508612)
Conditions: pH 7.4, 30.0 min, 50.0 µM
Recorded Papp by entry
observable: Papp

compound | observable | result
CC1(C)CC2CC(C)(CN2S(=O)(=O)c2ccc(C(=O)Nc3ccc(Cl)cc3)cc2)C1 (stereo not given) | Papp | > 10000 nm/s
Cc1cc2c(-c3cccc(O)c3)nc(-c3c(C)noc3C)cc2[nH]1 | Papp | > 10000 nm/s
CCOC(=O)c1ccc2c(c1)c(C(C)=O)c(C)n2-c1ccc(OC)cc1 | Papp | > 10000 nm/s
CC(=O)NCc1ccc(-c2csc(Nc3cc(C)cc(C)c3)n2)o1 | Papp | > 10000 nm/s
Cc1nc(NCc2ccco2)nc2c1C(=O)CC(C)C2 (stereo not given) | Papp | > 10000 nm/s

---

Experiment: passive permeability, PAMPA, ADME assay (AID 1508612)
Settings: pH 7.4, 30.0 min, 50.0 µM

compound | value_comparator | Papp / ×10⁻⁶ cm/s
CNc1oc(-c2ccc(-c3ccccc3)cc2)nc1C#N | > | 1000
Cc1csc2nc(-c3cccc(NC(=O)c4cccc(F)c4)c3)cn12 | > | 1000
COc1cc(Nc2nc(-c3ccncc3)nc3ccccc23)ccc1N1CCN(C)CC1 | > | 1000
C[C@@H](NC(=O)c1ncnc(N)c1Cl)c1ncc(C(=O)Nc2cc(C(F)(F)F)c(Cl)cn2)s1 | > | 1000
COc1ccccc1OCCNCC(O)COc1cccc2[nH]c3ccccc3c12 (stereo unspecified) | > | 1000
CC(=O)N1CCc2cc(S(=O)(=O)NCCC3=CCCCC3)ccc21 | = | 444
CCCNC(=O)c1ccc2c(c1)ncn2-c1cc(C)cc(C)c1 | > | 1000
Cn1nnnc1Sc1ncnc2scc(-c3ccc(F)cc3)c12 | = | 911
CCOc1ccc(CCNC(=O)c2cccc(C(=O)c3ccccc3)c2)cc1OCC | > | 1000
O=C(c1ccc2c(c1)ncn2-c1cccc(Cl)c1)N1CCCCC1 | = | 895
CCNC(=O)c1ccc(-c2ccc3ncnc(NCC4CCCO4)c3c2)o1 (stereo unspecified) | = | 146
CCN(CC)C(=O)c1ccc2c(c1)ncn2-c1cccc(C)c1 | = | 889
CCN(CC)C(=O)c1sc2c(c1C)c(=O)n(Cc1ccccc1)c(=O)n2CC(=O)Nc1ccc(OC)cc1 | > | 1000
Cc1ccc(S(=O)(=O)Nc2ccccc2C(=O)Nc2nc(-c3ccccc3)co2)cc1 | = | 358
Fc1ccc(Cc2nc3nccc(-c4cccs4)n3n2)cc1 | > | 1000
CCOC(=O)Nc1ccc(NCc2ccc(F)cc2)nc1N | = | 68.3
